Molecular target: His-hMAGL (recombinant polyhistidine tagged human MAGL protein) (Homo sapiens)
Construct: made in house; host or cells: E. coli BL21(DE3)
Sequence (Q99685 whole entry): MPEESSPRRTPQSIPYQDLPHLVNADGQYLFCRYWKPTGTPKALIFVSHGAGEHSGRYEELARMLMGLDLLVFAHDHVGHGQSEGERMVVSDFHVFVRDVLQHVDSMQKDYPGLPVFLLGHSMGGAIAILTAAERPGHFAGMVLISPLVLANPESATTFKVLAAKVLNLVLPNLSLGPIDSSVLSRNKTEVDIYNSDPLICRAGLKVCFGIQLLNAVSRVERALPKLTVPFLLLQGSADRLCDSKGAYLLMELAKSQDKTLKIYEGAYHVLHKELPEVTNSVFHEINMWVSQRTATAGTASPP
Test: Measurement of MAGL inhibitory activity (arachidonic acid production from 2-arachidonylglycerol, RapidFire-mass spectrometry)
Format: biochemical
Details: MAGL inhibitory rate at 10 μM test compound; 60 min preincubation with His-hMAGL, 2-arachidonylglycerol substrate, 10 min reaction at room temperature; 10 µM
Description: Furthermore, acetonitrile (50 μL) containing 3 μM arachidonic acid-d8 (Cayman Chemical Company) was added and the mixture was stirred. The amount of arachidonic acid in the obtained enzyme reaction mixture was calculated by measuring by RapidFire-mass spectrometry and correcting by the amount of arachidonic acid-d8. […] MAGL inhibitory rate (%) was calculated according to the following calculation formula. […]
QUANTITY MEASURED: % inhibition (10 μM) (%)
Write down the numeric answer in % and omit the unit.

Form entry - test system: His-hMAGL (recombinant polyhistidine tagged human MAGL protein) (Homo sapiens); read-out: % inhibition (10 μM); molecule: CC(Oc1ccc(F)cc1Cl)C1CCN(C(=O)c2cc3c(cc2F)OCC(=O)N3)CC1 (stereo not drawn) [Example 295]
101

Recall the recorded % inhibition (10 μM) for CC(Oc1ccc(F)cc1Cl)C1CCN(C(=O)c2cc3c(cc2F)OCC(=O)N3)CC1 (stereo not drawn) [Example 296] with His-hMAGL (recombinant polyhistidine tagged human MAGL protein) (Homo sapiens) and state it.
101

Form: Entry = CC(Oc1cc(F)ccc1F)C1CN(C(=O)c2cc3c(cc2F)OCC(=O)N3)C1 (stereo not drawn) [Example 319] | System = His-hMAGL (recombinant polyhistidine tagged human MAGL protein) (Homo sapiens) | % inhibition (10 μM) = ____
101

Notebook entry, His-hMAGL (recombinant polyhistidine tagged human MAGL protein) (Homo sapiens) assay: % inhibition (10 μM) of CC(Oc1ccc(F)cc1F)C1CN(C(=O)c2cc3c(cc2F)OCC(=O)N3)C1 (stereo not drawn) [Example 301] = ?
99

Quick check: % inhibition (10 μM) on His-hMAGL (recombinant polyhistidine tagged human MAGL protein) (Homo sapiens), item CC(Oc1ccc(F)cc1F)C1CN(C(=O)c2cc3c(cc2F)OCC(=O)N3)C1 (stereo not drawn) [Example 300] ?
102
